// values below are reported Dmax
# measurementTarget: ER (Homo sapiens (Human), UniProt P03372)
# Sequence (P03372 whole entry): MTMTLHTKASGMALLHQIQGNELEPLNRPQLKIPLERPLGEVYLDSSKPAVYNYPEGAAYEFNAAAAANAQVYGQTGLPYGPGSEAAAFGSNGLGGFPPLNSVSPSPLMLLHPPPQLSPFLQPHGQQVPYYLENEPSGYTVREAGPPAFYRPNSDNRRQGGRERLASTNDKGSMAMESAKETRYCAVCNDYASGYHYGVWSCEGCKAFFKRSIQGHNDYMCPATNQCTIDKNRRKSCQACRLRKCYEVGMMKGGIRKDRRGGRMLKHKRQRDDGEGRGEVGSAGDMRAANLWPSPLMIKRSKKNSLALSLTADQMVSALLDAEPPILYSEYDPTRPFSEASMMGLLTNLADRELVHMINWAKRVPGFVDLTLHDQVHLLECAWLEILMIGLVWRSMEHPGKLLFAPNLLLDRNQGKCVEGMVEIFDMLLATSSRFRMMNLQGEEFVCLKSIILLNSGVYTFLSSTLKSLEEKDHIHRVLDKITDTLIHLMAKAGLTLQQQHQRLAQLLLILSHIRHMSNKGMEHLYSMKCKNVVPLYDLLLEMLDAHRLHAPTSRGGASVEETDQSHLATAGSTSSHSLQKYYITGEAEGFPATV
# testDetails: In-cell western (ICW) ER degradation assay in MCF-7 cells
# Type: cell-based
# conditionParameters: MCF7, maximal ER degradation, MCF7, 16 hrs

{"compound": "O=C1CCC(Nc2ccc(C3CCN(CC4CCN(c5ccc([C@@H]6c7ccc(O)cc7OC[C@@H]6c6ccccc6)cc5)CC4)CC3)c(F)c2)C(=O)N1 (single isomer, unassigned)", "Dmax": "< 25%"}
{"compound": "O=C1CC[C@@H](Nc2ccc(C3CCN(CC4CCC5(CC4)CN(c4ccc([C@H]6c7ccc(O)cc7OC[C@H]6c6ccccc6)cc4)C5)CC3)cc2)C(=O)N1 (single isomer, unassigned)", "Dmax": "50 to 75%"}
{"compound": "O=C1CC[C@@H](N2Cc3cc4c(cc3C2=O)OC[C@H]2CN(C[C@@H]3COC5(CCN(c6ccc([C@H]7c8ccc(O)cc8OC[C@H]7c7ccccc7)cc6F)CC5)C3)CCN42)C(=O)N1", "Dmax": "< 25%"}
{"compound": "Cn1c(=O)n(C2CCC(=O)NC2=O)c2ccc(C3CCN(CC4CC5(CCN(c6ccc([C@@H]7c8ccc(O)cc8OC[C@@H]7c7ccccc7)cc6)CC5)C4)CC3)cc21 (single isomer, unassigned)", "Dmax": "50 to 75%"}
{"compound": "COc1cccc([C@@H]2COc3cc(O)ccc3[C@@H]2c2ccc(N3CCC(CN4CCN5c6ccc7c(c6OC[C@H]5C4)CN(C4CCC(=O)NC4=O)C7=O)CC3)cc2)c1 (single isomer, unassigned)", "Dmax": "25 to 50%"}
{"compound": "COc1cc(N2CCC(CN3CCC(c4ccc(N[C@@H]5CCC(=O)NC5=O)cc4)CC3)CC2)ccc1[C@@H]1c2ccc(O)cc2OC[C@@H]1c1ccccc1", "Dmax": "25 to 50%"}
{"compound": "O=C1CC[C@@H](N2Cc3cc4c(cc3C2=O)OC[C@H]2CN(CC3CC5(CCN(c6ccc([C@@H]7c8ccc(O)cc8OC[C@@H]7c7ccccc7)cc6)CC5)C3)CCN42)C(=O)N1", "Dmax": "50 to 75%"}
{"compound": "O=C1CCC(N2Cc3cc4c(cc3C2=O)OCC42CCN(CC3CCC4(CC3)CN(c3ccc([C@H]5c6ccc(O)cc6OC[C@H]5c5ccccc5)cc3)C4)CC2)C(=O)N1 (stereo partly shown)", "Dmax": "50 to 75%"}
{"compound": "O=C1CC[C@H](N2Cc3cc4c(cc3C2)N2CCN(C[C@@H]3COC5(CCN(c6ccc([C@H]7c8ccc(O)cc8OC[C@H]7c7ccccc7)cc6F)CC5)C3)C[C@H]2CO4)C(=O)N1", "Dmax": "50 to 75%"}
{"compound": "COc1cccc([C@H]2COc3cc(O)ccc3[C@H]2c2ccc(N3CCC(CN4CCN5c6ccc7c(c6OC[C@H]5C4)CN(C4CCC(=O)NC4=O)C7=O)CC3)cc2)c1 (single isomer, unassigned)", "Dmax": "50 to 75%"}

The measurements presented in this section are drawn from patent US20260000676A1.
